B1: DYRK1B (parent)
chain: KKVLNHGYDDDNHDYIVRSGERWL

- Variants of: B1
- PROCEDURE_SUMMARY: protein stability index of a GFP-peptide fusion (GPS, HEK-293T) (PSI 1-6); higher = more stable;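 further: lentivirally expressed fusions sorted by FACS into six bins by GFP to DsRed ratio, PSI derived from sequencing read proportions per bin multiplied by bin number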
- MEASUREMENT_CONTEXT: c terminus: a fixed tail appended
Decision: protein stability index compared against 3; not below it gives class 1, below it gives class 0.

[
  {
    "MONOMER_SEQUENCE": "KKVLNHGYDDDNHDYIVRSGEYWL [R22Y]",
    "CLASS_ASSIGNMENT": "class 0"
  },
  {
    "MONOMER_SEQUENCE": "KKVLNHGTDDDNHDYIVRSGERWL [Y8T]",
    "CLASS_ASSIGNMENT": "class 1"
  },
  {
    "MONOMER_SEQUENCE": "KKVLNHGYDDDNHDYIVRSGERWV [L24V]",
    "CLASS_ASSIGNMENT": "class 1"
  },
  {
    "MONOMER_SEQUENCE": "KKVVNHGYDDDNHDYIVRSGERWL [L4V]",
    "CLASS_ASSIGNMENT": "class 0"
  },
  {
    "MONOMER_SEQUENCE": "KKVLNHGYDDDNHDYIQRSGERWL [V17Q]",
    "CLASS_ASSIGNMENT": "class 1"
  },
  {
    "MONOMER_SEQUENCE": "KKVLNHGSDDDNHDYIVRSGERWL [Y8S]",
    "CLASS_ASSIGNMENT": "class 1"
  },
  {
    "MONOMER_SEQUENCE": "KKVSNHGYDDDNHDYIVRSGERWL [L4S]",
    "CLASS_ASSIGNMENT": "class 1"
  },
  {
    "MONOMER_SEQUENCE": "KKVLNHGYDDDNHDYIVRSGYRWL [E21Y]",
    "CLASS_ASSIGNMENT": "class 0"
  },
  {
    "MONOMER_SEQUENCE": "KKVLNHGYDDDNHDYIRRSGERWL [V17R]",
    "CLASS_ASSIGNMENT": "class 1"
  },
  {
    "MONOMER_SEQUENCE": "KKSLNHGYDDDNHDYIVRSGERWL [V3S]",
    "CLASS_ASSIGNMENT": "class 1"
  },
  {
    "MONOMER_SEQUENCE": "KKVLNHGYNDDNHDYIVRSGERWL [D9N]",
    "CLASS_ASSIGNMENT": "class 0"
  },
  {
    "MONOMER_SEQUENCE": "KKVLFHGYDDDNHDYIVRSGERWL [N5F]",
    "CLASS_ASSIGNMENT": "class 0"
  },
  {
    "MONOMER_SEQUENCE": "KKVLNHSYDDDNHDYIVRSGERWL [G7S]",
    "CLASS_ASSIGNMENT": "class 1"
  },
  {
    "MONOMER_SEQUENCE": "KKVLNHGYDDDNHDYHVRSGERWL [I16H]",
    "CLASS_ASSIGNMENT": "class 1"
  },
  {
    "MONOMER_SEQUENCE": "KKRLNHGYDDDNHDYIVRSGERWL [V3R]",
    "CLASS_ASSIGNMENT": "class 0"
  },
  {
    "MONOMER_SEQUENCE": "KKVLNHGVDDDNHDYIVRSGERWL [Y8V]",
    "CLASS_ASSIGNMENT": "class 1"
  },
  {
    "MONOMER_SEQUENCE": "KKVLNHGYDDWNHDYIVRSGERWL [D11W]",
    "CLASS_ASSIGNMENT": "class 0"
  },
  {
    "MONOMER_SEQUENCE": "KKVLNHGYDDDNHDYIVRSGERKL [W23K]",
    "CLASS_ASSIGNMENT": "class 1"
  },
  {
    "MONOMER_SEQUENCE": "KKVLNHGYDDDNHDYIVRIGERWL [S19I]",
    "CLASS_ASSIGNMENT": "class 0"
  },
  {
    "MONOMER_SEQUENCE": "KKVLNHGKDDDNHDYIVRSGERWL [Y8K]",
    "CLASS_ASSIGNMENT": "class 1"
  },
  {
    "MONOMER_SEQUENCE": "KKVLNHGYDDDNHDYIVRSGSRWL [E21S]",
    "CLASS_ASSIGNMENT": "class 0"
  },
  {
    "MONOMER_SEQUENCE": "KKVLNHGYDDDNHDYIHRSGERWL [V17H]",
    "CLASS_ASSIGNMENT": "class 1"
  },
  {
    "MONOMER_SEQUENCE": "KKVLNHGYDDDNHDAIVRSGERWL [Y15A]",
    "CLASS_ASSIGNMENT": "class 1"
  },
  {
    "MONOMER_SEQUENCE": "KKVLNHGYDDDNHDYIVRSGEIWL [R22I]",
    "CLASS_ASSIGNMENT": "class 0"
  },
  {
    "MONOMER_SEQUENCE": "KKVLNHGYDDDNWDYIVRSGERWL [H13W]",
    "CLASS_ASSIGNMENT": "class 0"
  },
  {
    "MONOMER_SEQUENCE": "KKVLNHGYDDDNHDYIVRDGERWL [S19D]",
    "CLASS_ASSIGNMENT": "class 1"
  },
  {
    "MONOMER_SEQUENCE": "KKVLNSGYDDDNHDYIVRSGERWL [H6S]",
    "CLASS_ASSIGNMENT": "class 1"
  },
  {
    "MONOMER_SEQUENCE": "GKVLNHGYDDDNHDYIVRSGERWL [K1G]",
    "CLASS_ASSIGNMENT": "class 1"
  },
  {
    "MONOMER_SEQUENCE": "KKVLNHGYDDDNHDYIVRSGERWS [L24S]",
    "CLASS_ASSIGNMENT": "class 1"
  },
  {
    "MONOMER_SEQUENCE": "KKVLNHGYDDDNHDYIVRSGEAWL [R22A]",
    "CLASS_ASSIGNMENT": "class 1"
  },
  {
    "MONOMER_SEQUENCE": "KKVLNHGYDDDNGDYIVRSGERWL [H13G]",
    "CLASS_ASSIGNMENT": "class 1"
  },
  {
    "MONOMER_SEQUENCE": "KKVLNHIYDDDNHDYIVRSGERWL [G7I]",
    "CLASS_ASSIGNMENT": "class 0"
  },
  {
    "MONOMER_SEQUENCE": "KKVLNHGYFDDNHDYIVRSGERWL [D9F]",
    "CLASS_ASSIGNMENT": "class 0"
  },
  {
    "MONOMER_SEQUENCE": "KKVLNHEYDDDNHDYIVRSGERWL [G7E]",
    "CLASS_ASSIGNMENT": "class 1"
  },
  {
    "MONOMER_SEQUENCE": "KKVLNHGYDDDNHDYIVRSGENWL [R22N]",
    "CLASS_ASSIGNMENT": "class 1"
  },
  {
    "MONOMER_SEQUENCE": "KKVLNHGYDDDNHSYIVRSGERWL [D14S]",
    "CLASS_ASSIGNMENT": "class 0"
  },
  {
    "MONOMER_SEQUENCE": "KKVLNHGYDDDNHDYIVRSEERWL [G20E]",
    "CLASS_ASSIGNMENT": "class 1"
  },
  {
    "MONOMER_SEQUENCE": "AKVLNHGYDDDNHDYIVRSGERWL [K1A]",
    "CLASS_ASSIGNMENT": "class 1"
  },
  {
    "MONOMER_SEQUENCE": "KKVLNHGYDDDNHDYIVNSGERWL [R18N]",
    "CLASS_ASSIGNMENT": "class 0"
  },
  {
    "MONOMER_SEQUENCE": "KKVLNHWYDDDNHDYIVRSGERWL [G7W]",
    "CLASS_ASSIGNMENT": "class 0"
  },
  {
    "MONOMER_SEQUENCE": "KKVLNHGYDDDNHDYIVRMGERWL [S19M]",
    "CLASS_ASSIGNMENT": "class 0"
  },
  {
    "MONOMER_SEQUENCE": "KKVLNHGYDDDNHDYIVRSGETWL [R22T]",
    "CLASS_ASSIGNMENT": "class 0"
  }
]
